// melting point lookup, one value per entry
RECORDED_ENDPOINT: melting point

{"columns": ["MOLECULE", "RECORDED_ENDPOINT", "RESULT"],
 "data": [
  ["CCCCc1nc2ccc(Br)cc2c(=NC)n1CCC", "melting point", "61 to 64 °C"],
  ["CCCCc1nc2sc(Cl)cc2c(=NC(C)=O)n1CCC", "melting point", "98 to 99 °C"],
  ["CCCCc1nc2ccc(Cl)cc2c(=NC)n1CCC", "melting point", "58 to 60 °C"],
  ["CCCCc1nc2sc(Cl)cc2c(=NC(=O)OC)n1CCCC", "melting point", "103 to 104 °C"],
  ["CCCOc1nc2sccc2c(=N)n1CCC", "melting point", "61 to 63 °C"],
  ["CCCOC1=Nc2ccc(Cl)cc2C(=CN)N1CCC", "melting point", "53 to 55 °C"],
  ["CCCN=c1c2cc(Cl)ccc2nc(OCCC)n1CCC", "melting point", "50 to 51 °C"],
  ["CCCOc1nc2sc(Cl)cc2c(=NC(C)=O)n1CCC", "melting point", "101 to 103 °C"]
]}
